- Tested Target: human androgen receptor (Homo sapiens)
- Construct: host or cells: MCF-7 cytosol (endogenous) or CHO cells transfected with hAR
- Sequence (P10275 whole entry): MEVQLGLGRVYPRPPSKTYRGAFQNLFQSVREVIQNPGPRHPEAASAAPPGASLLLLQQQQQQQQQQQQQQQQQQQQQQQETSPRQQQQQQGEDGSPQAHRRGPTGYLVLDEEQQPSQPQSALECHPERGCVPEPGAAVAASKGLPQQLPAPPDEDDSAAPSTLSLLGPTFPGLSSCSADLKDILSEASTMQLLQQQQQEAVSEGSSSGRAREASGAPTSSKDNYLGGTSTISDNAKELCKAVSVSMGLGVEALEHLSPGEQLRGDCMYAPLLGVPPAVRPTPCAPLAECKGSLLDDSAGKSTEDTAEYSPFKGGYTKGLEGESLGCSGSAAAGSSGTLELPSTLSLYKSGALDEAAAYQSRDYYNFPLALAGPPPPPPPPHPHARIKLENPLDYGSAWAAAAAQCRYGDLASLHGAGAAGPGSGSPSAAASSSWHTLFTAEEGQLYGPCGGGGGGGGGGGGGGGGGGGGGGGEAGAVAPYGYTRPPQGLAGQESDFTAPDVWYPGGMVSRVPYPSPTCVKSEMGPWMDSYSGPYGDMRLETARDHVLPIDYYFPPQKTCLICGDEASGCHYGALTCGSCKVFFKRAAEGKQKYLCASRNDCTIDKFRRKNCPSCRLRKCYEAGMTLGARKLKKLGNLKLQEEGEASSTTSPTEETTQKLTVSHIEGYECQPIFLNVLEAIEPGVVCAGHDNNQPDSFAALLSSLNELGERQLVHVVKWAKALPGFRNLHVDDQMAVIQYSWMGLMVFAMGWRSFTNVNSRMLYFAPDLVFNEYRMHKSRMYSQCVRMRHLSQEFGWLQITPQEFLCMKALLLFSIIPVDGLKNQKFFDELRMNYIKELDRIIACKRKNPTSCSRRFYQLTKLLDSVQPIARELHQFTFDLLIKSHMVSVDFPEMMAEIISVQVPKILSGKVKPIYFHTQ
- Assay Details: androgenic activity rating (procedures described above; which one underlies the rating is not stated)
- Set-up: key: +: androgenic activity found; ++: high androgenic activity; +++: excellent androgenic activity
- Description: Androgenic activity can be measured in various ways. Thus, the potency of androgens can be determined in vitro using the cytoplasmic androgen receptor from human breast tumor cells (MCF-7 cell line); see Bergink, E. W. et al, Comparison of the receptor binding properties of nandrolone and testosterone under in vitro and in vivo conditions, J. Steroid Biochem. 22, 831-836 (1985). […]
Outcome Measure: Rating (androgenic activity)

Compound	Tested Target	Experimental Value
CC(O)C1CCC2C3CCC4=CC(=O)CCC4=C3CCC12C (stereo not shown) [Example 27a]	human androgen receptor (Homo sapiens)	++
C[C@@H]1CC2=CC(=O)CC[C@@H]2[C@H]2CC[C@]3(C)[C@H](CO)CC[C@@H]3[C@@H]21	human androgen receptor (Homo sapiens)	+++
CC(O)C1C2CC2C2C3C(C)CC4=CC(=O)CCC4C3CCC12C (stereo not shown) [Example 20a]	human androgen receptor (Homo sapiens)	++
CCC[C@H](O)[C@@H]1CC[C@@H]2[C@@H]3CCC4=CC(=O)CC[C@@H]4[C@H]3CC[C@@]21C [Example 25c]	human androgen receptor (Homo sapiens)	+
CCC12CCC3C4CCC(=O)C=C4CCC3C1CCC2C(C)O (stereo not shown) [Example 32a]	human androgen receptor (Homo sapiens)	+

# lookup: Rating (androgenic activity) of CCCC[C@H]1CC[C@H](C(=O)OC[C@@H]2CC[C@@H]3[C@H]4[C@H](CC[C@]23C)[C@H]2CCC(=O)C=C2C[C@H]4C)CC1 (relative stereo) [Example 33d]
+

Any idea what its Rating (androgenic activity) is? The compound is C[C@]12CC[C@H]3[C@@H](CCC4=CC(=O)CC[C@@]43C)[C@H]1CC[C@H]2CO [Example 22b]
+

Looking for the measured Rating (androgenic activity) of "C[C@@H]1CC2=CC(=O)CC[C@@H]2[C@H]2CC[C@@]3(C)[C@H](C=C[C@H]3CO)[C@@H]21" , can you help?
+++

Dear colleague, I am looking for the recorded Rating (androgenic activity) of the following compound: "C[C@@H]1CC2=CC(=O)CC[C@@H]2[C@H]2CC[C@@]3(C)[C@H]([C@@H]4C[C@@H]4[C@H]3CO)[C@@H]21"
++
